# test.target: Aurora kinase A (Homo sapiens)
# Sequence (O14965 whole entry): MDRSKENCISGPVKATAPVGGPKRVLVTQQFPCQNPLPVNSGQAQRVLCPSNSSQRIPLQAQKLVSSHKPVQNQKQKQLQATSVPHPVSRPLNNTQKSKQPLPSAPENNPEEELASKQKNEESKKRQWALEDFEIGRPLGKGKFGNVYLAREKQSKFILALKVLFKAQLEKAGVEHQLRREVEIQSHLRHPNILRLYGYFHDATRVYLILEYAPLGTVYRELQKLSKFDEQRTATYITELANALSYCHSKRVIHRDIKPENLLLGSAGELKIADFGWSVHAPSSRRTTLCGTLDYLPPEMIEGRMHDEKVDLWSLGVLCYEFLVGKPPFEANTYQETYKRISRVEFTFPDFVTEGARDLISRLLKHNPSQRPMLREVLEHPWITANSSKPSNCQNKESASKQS
quantity.name: IC50 (nM)

P: COc1cc2c(Nc3cnc(NC(=O)c4ccc(Cc5ccccc5)c(Br)c4)nc3)ncnc2cc1OCCCN1CCOCC1
Q: COc1cc2c(Nc3cnc(NC(=O)c4ccccc4)nc3)ncnc2cc1OC[C@@H](O)CN1CCCCC1
Incoming: Task for the reader: decide whether P or Q has the larger IC50. Write down the label of the entry you select.
Outgoing: P
